Just for reference, ChEMBL document CHEMBL3988442 is where these values come from.

TGT: Tyrosyl-tRNA synthetase, putative (Trypanosoma cruzi (strain CL Brener)) (UniProt Q4DSP6)
Sequence (whole entry): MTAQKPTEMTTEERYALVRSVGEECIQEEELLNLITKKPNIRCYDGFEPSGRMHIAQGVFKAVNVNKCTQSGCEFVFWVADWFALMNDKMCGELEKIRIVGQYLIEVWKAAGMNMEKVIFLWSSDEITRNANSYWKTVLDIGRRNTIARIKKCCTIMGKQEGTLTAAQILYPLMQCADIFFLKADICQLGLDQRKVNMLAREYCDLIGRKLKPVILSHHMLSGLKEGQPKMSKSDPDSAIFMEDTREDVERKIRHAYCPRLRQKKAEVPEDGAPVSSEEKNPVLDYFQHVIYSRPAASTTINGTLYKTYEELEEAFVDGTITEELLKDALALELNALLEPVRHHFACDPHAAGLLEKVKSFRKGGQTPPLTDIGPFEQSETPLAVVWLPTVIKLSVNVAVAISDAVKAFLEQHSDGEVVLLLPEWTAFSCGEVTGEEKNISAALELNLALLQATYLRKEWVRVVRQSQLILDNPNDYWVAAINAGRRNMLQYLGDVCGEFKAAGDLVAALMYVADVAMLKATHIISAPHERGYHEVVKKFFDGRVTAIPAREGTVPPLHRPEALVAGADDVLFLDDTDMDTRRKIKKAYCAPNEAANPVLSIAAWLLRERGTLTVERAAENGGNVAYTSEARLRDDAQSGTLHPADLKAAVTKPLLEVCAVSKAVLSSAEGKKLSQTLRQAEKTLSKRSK
PROCEDURE DETAILS: Trypanosoma cruzi tyrosyl tRNA synthetase (TcYRS) _High Tyrosine SOP
Assay type: functional
Parameters: scale not given: in the data most compounds retested in dose-response had high values
SETUP CONDITIONS: 30 µM
Reported Percent Effect values for a set of molecules

| MOLECULE | Percent Effect / % |
| --- | --- |
| CC(C)c1nc(C(=O)N2CCCC(n3cncn3)C2)c[nH]1 (stereo not given) | 4.17 |
| CCC(C)NC(=O)N1CCCn2cnc(CO)c2C1 (stereo not given) | 6.25 |
| Cc1nc(N)sc1C(=O)N1CCCC(c2nccn2CCCN(C)C)C1 (stereo not given) | 11.2 |
| OCC1CCCN1c1cc(NCCNc2ccccn2)ncn1 (stereo not given) | 2.15 |
| Cc1csc(N2CCCN(C(=O)c3cnns3)CC2)n1 | 0.526 |
| Cc1ccc(OC2(C(=O)O)CCN(C(=O)c3nc(C)oc3C)CC2)cn1 | 2.66 |
| Cc1cccc(NC(=O)NCCCn2nc3ccccn3c2=O)c1C | 8.37 |
| Cc1ccc(-c2nc(CN3CCc4c(ncn4C)C3)cs2)o1 | 11 |
| Cc1ccc(CC(=O)N2CCCCC2c2nc(C)cs2)cn1 (stereo not given) | -4.17 |
| Cc1cnn(C(C)C2CC2)c1NC(=O)c1cnccn1 (stereo not given) | 1.6 |
| Cc1nn(C)c(C)c1C1CCCN1C(=O)c1cnc2n[nH]c(C)c2c1 (stereo not given) | 4.95 |
| CC(C)c1nn(C)c(N2CCOCC2)c1CNCCS(C)(=O)=O | 0.478 |
| COc1cccc2c1ccn2CC(=O)N[C@@H](CCSC)C(=O)O | 4.23 |
| Cc1nnc(CN2CCCC(c3cc(C(N)=O)[nH]n3)C2)o1 (stereo not given) | -1.48 |
| CN(C)C(=O)C1CCCN1CCCNC(=O)c1ccccc1F (stereo not given) | 5.38 |
| COc1cccc(-c2noc(C3CCN(Cc4cccs4)C3)n2)c1 (stereo not given) | -3.17 |
| O=C(NCCn1ccc(-c2ccccn2)n1)c1ccncc1 | 2.15 |
| CC(C)CN1C[C@@H]2CN(C(=O)[C@H]3CCCO3)C[C@@H]2C1=O | -5.8 |
| CN(C)[C@H]1CCCCN(C(=O)CCc2csc(N)n2)C1 | 3.72 |
| O=C(NCCN1CCCCC1)c1ccoc1 | -2.94 |
| COc1cc(N2CCCC(c3nccn3CCN(C)C)C2)nc(N)n1 (stereo not given) | 7.98 |
| Cc1cc(NC(=O)NCC(C)O)n(C)n1 (stereo not given) | 2.45 |
| CCc1c(C(=O)NCC2CCS(=O)(=O)C2)cnn1-c1ccc(C)cc1 (stereo not given) | 5.42 |
| CSc1nccn1-c1cccc(C(=O)NCc2nnc(C)n2C)c1 | 6.4 |
| Cc1ccc(-c2nnc(CNCCn3cc(C)cn3)o2)cc1 | 4.9 |
